- TEST: inhibitors of TNFa-induced NFkB p65 translocation, primary screen, imaging, HUVEC, MLSMR starter and 10KST1 sets (AID 438);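 note: compound added about 3h40 before a 20 min TNFalpha stimulation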
- PARTICULARS: HUVEC TNFa-induced p65 nuclear translocation; measured here: nuclei count (cytotoxicity indicator), at 2.08 µM
ENDPOINT_NAME: cell count

>>> endpoint_value("O=C(CSC1=NCCS1)NCc1ccco1")
294
>>> endpoint_value("CN(CC(=O)Nc1cccnc1)S(=O)(=O)c1cc(Cl)ccc1Cl")
448
>>> endpoint_value("Cc1nn(Cc2ccccc2)c(C)c1NC(=O)CCC(=O)O")
667
>>> endpoint_value("Cc1ccc(Nc2cc(C)nc3ncnn23)c(Cl)c1")
551
>>> endpoint_value("Cc1nc2nc(Cc3ccccc3)[nH]n2c(=O)c1Cc1ccccc1")
351
>>> endpoint_value("Cc1cc(C(F)F)n2nc(C(=O)Nc3ccc(S(=O)(=O)N4CCCCCC4)cc3)nc2n1")
602
>>> endpoint_value("NC(=O)c1sc2nc(N3CCCCC3)c3c(c2c1N)CCCC3")
369
>>> endpoint_value("CCOC(=O)C1=C(C)N(C)C(C)=C(C(=O)OCC)C1c1cccnc1")
366
>>> endpoint_value("CC(C)(C)NC(=O)CC(CC(=O)O)c1ccccc1 (stereo unspecified)")
584
>>> endpoint_value("CCCCn1c(SCC(=O)NCc2ccccc2)nc2ccc(N3CCOCC3)cc2c1=O")
372
>>> endpoint_value("COCc1cc(C)nc(SCC(=O)Nc2cccc(C)c2C)c1C#N")
578

---

- TEST: reduction of polyQ htt aggregates in cells – imaging, exon1htt(103Q)mCFP cells, high-content imaging, primary screen (AID 483);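 note: compound exposure lasted 3 days before fixation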
- PARTICULARS: exon1htt(103Q)mCFP cell line, aggregate imaging, at 2 µM; stronger effect = higher value
ENDPOINT_NAME: inhibition of aggregation (%)

>>> endpoint_value("Cc1cnc(-c2nnc(N(C)C(=O)C3CCOC3)s2)cn1 (stereo not given)")
26.6
>>> endpoint_value("Cc1nc(SCC(=O)NCc2ccco2)c2c(C)c(C)sc2n1")
15.2
>>> endpoint_value("O=C(Nc1ccc2oc(-c3ccncc3)nc2c1)c1cccs1")
-8.6
>>> endpoint_value("C/C(N)=C(/C#N)C(=O)COC(=O)c1cc(S(=O)(=O)N2CCCCC2)ccc1C")
-28.1
>>> endpoint_value("CCOc1ccc2[nH]c(O)c(NC(C)=O)c2c1")
5.7
>>> endpoint_value("Cc1ccc(-c2cc(C(F)F)n3ncc(C(=O)N4CCN(c5ccccn5)CC4)c3n2)cc1")
9.3
>>> endpoint_value("COc1ccccc1-n1c(SCC(=O)Nc2ccc3c(c2)OCO3)nc2c(c1=O)SCC2")
-2.1
>>> endpoint_value("CC(=O)N1CCc2cc(S(=O)(=O)NCCC(=O)Nc3cc(C)cc(C)c3)ccc21")
15.1
>>> endpoint_value("O=C(CC(CC(=O)c1ccccc1)C(=O)O)c1ccccc1")
-4.6
>>> endpoint_value("Cc1cc(C)nc(NS(=O)(=O)c2ccc(NC(=O)Cn3c(=O)oc4ccccc43)cc2)n1")
26
>>> endpoint_value("CCSc1nc(O)c(CC)c(=O)n1C(C)CC (stereo not given)")
-3.7
>>> endpoint_value("COCC(C)NC(=O)CCS(=O)(=O)c1nc(-c2ccc(OC)cc2)cc(C(F)(F)F)n1 (stereo not given)")
2.6
>>> endpoint_value("CCOC(=O)N1CCN(c2nc(-c3ccc(Cl)cc3)cs2)CC1")
7.8
>>> endpoint_value("N#CC1=C(N)N2C(=C(C#N)C13CCCCC3)SC1CCCCC12O (stereo not given)")
3.6
>>> endpoint_value("O=C(c1cccs1)N1CCc2ccccc21")
5
>>> endpoint_value("CS(=O)(=O)N(CC(=O)O)c1cccc(Cl)c1")
-14.9
>>> endpoint_value("CCN(CC)S(=O)(=O)c1ccc(C(=O)N2CCN=C2SCc2cccnc2)cc1")
-5.6
>>> endpoint_value("CC1(C)CC(=O)C=C(NCCN2CCN(C(=O)Nc3ccccc3)CC2)C1")
0
>>> endpoint_value("Cc1[nH]c2ccccc2c(=O)c1CN(C)Cc1ccccc1")
13.3
>>> endpoint_value("O=C(c1cccc(Cl)c1)N1CCN(Cc2ccncc2)CC1")
1.7
>>> endpoint_value("O=C(CSc1nc2ccccc2[nH]1)c1ccc2c(c1)OCO2")
-4
>>> endpoint_value("O=C(Oc1ccc(Cl)cc1N1C(=O)CCC1=O)c1ccco1")
-31.4
>>> endpoint_value("Cc1ccc(-c2cc(C(=O)NCc3ccc4c(c3)OCO4)no2)cc1")
8.6
>>> endpoint_value("CS(=O)(=O)c1ccc2nc(NC(=O)CCC(=O)c3cccs3)sc2c1")
-3.8
>>> endpoint_value("Cc1ccc(-c2cc(C(F)F)nc(N3CCC(C)CC3)n2)cc1")
-11.6
>>> endpoint_value("CCOC(=O)c1sc(NC(=O)CNC(=O)Cn2cnc3sc(C)c(C)c3c2=O)nc1C")
-12.7
>>> endpoint_value("COCCCNC(=O)CSc1nc2ccc(N3CCOCC3)cc2c(=O)n1CCc1ccccc1")
-0.2
>>> endpoint_value("CCSc1nnc(N2C(=O)CC(c3ccsc3)C3=C2CC(C)(C)CC3=O)s1 (stereo not given)")
4.8
>>> endpoint_value("O=C1CN(C(=O)COC(=O)C23CC4CC(CC(O)(C4)C2)C3)c2ccccc2N1")
8
>>> endpoint_value("COc1ccc(NC(=O)C23CCC(C)(C(=O)C2)C3(C)C)cc1 (stereo not given)")
-15.6
>>> endpoint_value("CCC1Cc2c(nc3c4c(nc(N5CCOCC5)c(C#N)c24)NC(C)=N3)O1 (stereo not given)")
7.2
>>> endpoint_value("Cc1ccc(NC(=O)Cn2cccc2)cc1Cl")
7
>>> endpoint_value("COc1ccc(S(=O)(=O)Nc2ccccc2SC)cc1C")
12.2
>>> endpoint_value("CC(c1ccco1)N(C(=O)COc1ccc(Cl)cc1Cl)c1ccccn1 (stereo not given)")
-4.8
>>> endpoint_value("COc1ccccc1OCC(=O)Nc1ccc(S(=O)(=O)Nc2nc(C)cc(C)n2)cc1")
-13.8
>>> endpoint_value("Cc1ccc2c(c1)CCCN2C(=O)c1ccc2c(c1)OCO2")
-0.1
>>> endpoint_value("O=C(CSc1nnc(-c2ccccc2)o1)N1CCc2ccccc2C1")
2.7
>>> endpoint_value("Nn1cc(-c2ccccc2)nc1SCC(=O)N1CCN(S(=O)(=O)c2ccccc2)CC1")
13.8
>>> endpoint_value("O=C(O)CCc1ccc(-c2cccs2)n1CCC(=O)O")
-3.1
>>> endpoint_value("Cc1nnc2sc(-c3cccc(NC(=O)c4cccnc4)c3)nn12")
5
>>> endpoint_value("COCCn1cc(C(=O)c2ccccc2OCC(=O)Nc2cc(C)on2)cc(C#N)c1=O")
-23.9
>>> endpoint_value("O=C(CCN1CCN(C(=O)c2ccco2)CC1)Nc1ccc(F)cc1")
-11.1
>>> endpoint_value("CCOc1ccc(N(CC(=O)NC2CCCC(C)C2C)S(=O)(=O)c2c(C)noc2C)cc1 (stereo not given)")
20.7
>>> endpoint_value("O=C1CC(c2cccnc2)c2cc3c(cc2N1)OCO3 (stereo not given)")
-3.3
>>> endpoint_value("O=C(COC(=O)C1=COCCO1)Nc1ccccc1Oc1ccccc1")
31

---

- TARGET: Voltage-gated potassium channel subunit beta-2 (Rattus norvegicus) (UniProt P62483)
- Sequence (P62483 whole entry, looked up): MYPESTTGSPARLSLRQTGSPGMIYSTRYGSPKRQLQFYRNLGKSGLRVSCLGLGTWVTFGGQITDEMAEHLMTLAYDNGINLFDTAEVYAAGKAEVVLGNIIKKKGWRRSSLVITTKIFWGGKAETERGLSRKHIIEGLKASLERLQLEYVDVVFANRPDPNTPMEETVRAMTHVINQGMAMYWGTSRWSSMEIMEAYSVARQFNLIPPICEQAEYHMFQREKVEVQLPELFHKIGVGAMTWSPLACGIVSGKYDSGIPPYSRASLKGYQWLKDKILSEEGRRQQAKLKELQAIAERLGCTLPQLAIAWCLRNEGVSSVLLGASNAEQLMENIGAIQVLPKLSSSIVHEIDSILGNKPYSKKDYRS
- TEST: inhibitors of rat Kvbeta2 reductase activity – biochemical, NADPH fluorescence, primary screen (AID 622);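 note: slope of raw intensity against log time taken from 70 to 1610 s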
- PARTICULARS: recombinant KvBeta, 4-cyanobenzaldehyde reduction, at 10 µM, stronger effect = higher value
ENDPOINT_NAME: fluorescence slope

>>> endpoint_value("CN(C)c1ccc(C=Nc2ccc(N(C)C)cc2)cc1")
-0.512
>>> endpoint_value("O=C(c1cc(-c2cccs2)on1)N1CCc2ccccc2C1")
-0.441
>>> endpoint_value("CN(C)C(CNC(=O)Nc1cccc(Cl)c1)c1cccnc1 (stereo not drawn)")
-0.427
>>> endpoint_value("Cn1c(=O)n(C)c2cc(NC(=O)C(F)(F)F)ccc21")
-0.449
>>> endpoint_value("COc1ccccc1C(=O)Nc1ccc(N2CCN(Cc3ccccc3)CC2)cc1")
-0.611
>>> endpoint_value("COCC(=O)NC(c1ccccc1)c1ccccc1")
-0.561
>>> endpoint_value("COCCn1c(CN(Cc2ccccc2)Cc2ccccc2)nc2c1c(=O)n(C)c(=O)n2C")
-0.56
>>> endpoint_value("CC(C)C(=O)Nc1ccc(-c2nc3cccnc3o2)cc1")
-0.262
>>> endpoint_value("O=S(=O)(c1ccc(Br)s1)N1CCCCC1")
-0.615
>>> endpoint_value("Cc1cc(C)c(C(=O)Nc2ccc(S(=O)(=O)Nc3onc(C)c3C)cc2)c(C)c1")
-0.493
>>> endpoint_value("CCOC(=O)c1c(NC(=O)CSc2nc3c(c(=O)n(C)c(=O)n3C)n2C(C)C)sc(C)c1C")
-0.564
>>> endpoint_value("COc1cccc(N2CCN(CC(=O)NCc3cccs3)CC2)c1")
-0.318
>>> endpoint_value("COc1ccccc1CC(NC(C)=O)C(=O)NC1CCN(c2nnnn2-c2ccccc2)CC1 (stereo not drawn)")
-0.624
>>> endpoint_value("CCOC(=O)N1CCC(n2c(SCC(=O)NCc3ccco3)nc3ccsc3c2=O)CC1")
-0.386
>>> endpoint_value("COc1ccc(CCNC(=O)CSc2nnc(CNc3ccc(Cl)cc3)o2)cc1OC")
-0.594
>>> endpoint_value("CCOC(=O)C1=C(N)OC2=C(C(=O)CC(C)(C)C2)C1c1ccoc1 (stereo not drawn)")
-0.418
>>> endpoint_value("CCOC(=O)Nc1ccc2c(c1)N(C(=O)CN(CC)CC)c1ccccc1C=C2")
-0.577
>>> endpoint_value("Cc1cnc(C(=O)Nc2ccc(N3CCOCC3)cc2)cn1")
-0.524
>>> endpoint_value("Cc1cc(OCC(=O)N2CCOCC2)cc2oc(=O)c3ccccc3c12")
-0.329
>>> endpoint_value("CC1Cc2ccccc2N1CC(=O)NC(=O)NCc1ccco1 (stereo not drawn)")
-0.436
>>> endpoint_value("CCc1c(C(=O)Nc2cc(C)ccc2OC)[nH]c(C)c1C(C)=O")
-0.424
>>> endpoint_value("Cc1ccc(C(=O)OCC(=O)Nc2ccc3c(c2)OCO3)o1")
-0.595
>>> endpoint_value("COc1ccc(NC(=O)NCCN2C(=O)C3C4C=CC(C4)C3C2=O)cc1 (stereo not drawn)")
-0.54

meta.source: PubChem BioAssay
